Test system: groupe de huit goûteurs expérimentés
Experiment: Sweetening power judged by a panel of eight experienced tasters against a sucrose reference solution
Type: in vivo
Conditions: Table II; weight basis, relative to a 2 % sucrose solution
Pouvoir édulcorant listing for selected compounds.

{"smiles_text": "CCNC(=Nc1ccc(C#N)cc1)NCC(=O)O", "Pouvoir édulcorant": 350}
{"smiles_text": "Cc1cccc(N=C(NCC(=O)O)N[C@@H](C)c2ccccc2)c1", "Pouvoir édulcorant": 12000}
{"smiles_text": "N#Cc1ccc(N=C(NCC(=O)O)NC2CCCCC2)cc1", "Pouvoir édulcorant": 12000}
{"smiles_text": "N#Cc1ccc(N=C(NCC(=O)O)NCC2CCCCC2)cc1", "Pouvoir édulcorant": 35000}
{"smiles_text": "N#Cc1ccc(N=C(NCC(=O)O)NC2CCCCCCC2)cc1Cl", "Pouvoir édulcorant": 100000}
{"smiles_text": "CN(C(=Nc1ccc(C#N)cc1)NCC(=O)O)c1ccccc1", "Pouvoir édulcorant": 18000}
{"smiles_text": "N#Cc1ccc(N=C(NCC(=O)O)Nc2cccc(Cl)c2)cc1", "Pouvoir édulcorant": 10000}
{"smiles_text": "C[C@H](N=C(NCC(=O)O)Nc1ccc(F)cc1)c1ccccc1", "Pouvoir édulcorant": 4000}
{"smiles_text": "O=C(O)CNC(=Nc1ccc(Cl)cc1)NCC1CCCCC1", "Pouvoir édulcorant": 3500}
